# System: SF-295 CNS
# test_name: NCI tumour cell line growth inhibition, 48 h
The molecules listed here are annotated with their TGI.

Challenge: Could you tell me which TGI is on file for O=c1oc2ccccc2cc1-c1nc2ccc([N+](=O)[O-])cc2o1 ?
Response given: > 100 µM

Challenge: Another molecule to look at: Oc1cc2cc(-c3ccccc3)[nH]c2c2ccccc12
Response given: > 24.5 µM

Challenge: Another molecule to look at: CC(CC(=O)O)(CC(=O)O)C(=O)O
Response given: > 100 µM

---

# Test system: HS 578T breast
# test_name: NCI tumour cell line growth inhibition, 48 h
measurement_name: TGI

Challenge: Could you tell me which TGI is on file for O=C(Nc1cccc2nsnc12)c1cc2c(cc1Cl)Sc1nccn1S2(=O)=O ?
Response given: > 100 µM

Challenge: Another molecule to look at: CCOC(=O)/C=C1\Nc2ccccc2C12CCc1c([nH]c3ccccc13)C2C(=O)OCC (stereo not drawn)
Response given: > 100 µM

Challenge: Another molecule to look at: CC(CC(=O)O)(CC(=O)O)C(=O)O
Response given: > 100 µM
